Source of measurements: PubChem BioAssay (NCI)

For each entry below, report its GI50 value.
Test system: HCT-15 colon
Assay: NCI tumour cell line growth inhibition, 48 h

Go through the items and report each one's GI50.
1. OC(c1cc(-c2ccccc2)nc2ccc(Cl)cc12)C1CCCCN1 (configuration not stated)
2. C1C[OH+]CC[OH+]CCNCC[OH+]CC[OH+]CCN1.N.[Cl-].[Pt+4]
3. COc1ccc2c(c1)cn1c3ccc(O)cc3nc(N)c21

# output
1.84 µM
20.2 µM
0.0585 µM

====

System: SF-268 CNS
Test: NCI tumour cell line growth inhibition, 48 h
Where a SMILES comes first, the peptide text is derived from it. [ ]: non-standard residue; d: D form. The star is where a group is joined. X28 = COC1=CC(=O)N(C(=O)[C@@H](O*)C(C)C)[C@H]1Cc1ccccc1; NMeV = CN[C@H](C(=O)O)C(C)C; Hexanoyl = CCCCCC(=O)*
measured_metric: TGI

// worked examples, TGI included
- molecule: "CCCCCC(=O)N[C@H](C(=O)N[C@H](C(=O)N(C)[C@H](C(=O)N1CCC[C@H]1C(=O)N1CCC[C@H]1C(=O)O[C@H](C(=O)N1C(=O)C=C(OC)[C@@H]1Cc1ccccc1)C(C)C)C(C)C)C(C)C)C(C)C (Hexanoyl-VV[NMeV]PP-X28)"
  TGI: "> 100 µM"
- molecule: "C[C@@H]1C[C@H]2CC[C@H](O2)[C@H](C)C(=O)O[C@@H](C)C[C@@H]2CC[C@@H](O2)[C@@H](C)C(=O)O[C@H](C)C[C@H]2CC[C@H](O2)[C@H](C)C(=O)O[C@@H](C)C[C@@H]2CC[C@@H](O2)[C@@H](C)C(=O)O1"
  TGI: "> 51.4 µM"
- molecule: "CCSCCC(N)C(=O)O (stereo unspecified)"
  TGI: "> 100 µM"
- molecule: "CCOC(=O)N(Cc1cccs1)c1cc(OC)c(OC)c(OC)c1"
  TGI: "> 100 µM"
- molecule: "O=C1[C@H]2ON(c3ccccc3)C(c3ccccc3Cl)[C@H]2C(=O)N1c1ccc(Cc2ccc(N3C(=O)[C@@H]4ON(c5ccccc5)C(c5ccccc5Cl)[C@@H]4C3=O)cc2)cc1 (stereo partly specified)"
  TGI: "> 100 µM"

Proceeding to the next molecule to report its TGI.
# input Please list TGI recorded for the molecule CCCCCCCCN=C(N)c1ccc(N2CCN(c3ccc(C(N)=NCCCCCCCC)cc3)CC2)cc1
# output 5.91 µM
